Molecular target: human M4 (hM4) (Homo sapiens, UniProt P08173)
Sequence (P08173 whole entry): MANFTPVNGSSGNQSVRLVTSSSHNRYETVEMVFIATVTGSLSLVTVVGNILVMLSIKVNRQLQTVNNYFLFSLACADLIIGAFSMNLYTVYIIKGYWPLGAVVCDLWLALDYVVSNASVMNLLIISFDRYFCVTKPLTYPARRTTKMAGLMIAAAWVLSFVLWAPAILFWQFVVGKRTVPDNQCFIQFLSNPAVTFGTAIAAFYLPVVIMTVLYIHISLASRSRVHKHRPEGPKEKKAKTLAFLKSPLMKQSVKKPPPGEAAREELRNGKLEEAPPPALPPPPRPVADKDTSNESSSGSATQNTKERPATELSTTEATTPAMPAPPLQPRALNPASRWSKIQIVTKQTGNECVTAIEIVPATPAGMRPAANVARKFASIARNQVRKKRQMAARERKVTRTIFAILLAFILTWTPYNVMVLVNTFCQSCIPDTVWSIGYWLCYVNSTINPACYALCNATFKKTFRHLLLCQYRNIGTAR
Assay: Calcium mobilization assay, hM4/Gqi5-CHO cells, with EC20 acetylcholine (PAM)
Conditions: hM4/Gqi5-CHO cells, calcium mobilization, EC20 acetylcholine; maximum response
Rule: hM4 %ACh Max of 70% or more gives Criterion met; anything lower gives Criterion not met.

Query: // inclusive: hM4 %ACh Max at least 70%? input: Cc1nc2oc3c(NCc4ccc(C(C)(C)O)cc4)ncnc3c2c(C)c1Cl [Compound 14c]
Result: Criterion not met

Query: // inclusive: hM4 %ACh Max at least 70%? input: Cc1ncc(CNc2ncnc3c2sc2nc(C)c(Cl)c(C)c23)cn1.Cl [Compound 13b]
Result: Criterion met

Query: // inclusive: hM4 %ACh Max at least 70%? input: Cc1nc2sc3c(N4CC5CC5C4)nncc3c2c(C)c1Cl.Cl (stereo not drawn) [Compound 22c]
Result: Criterion met

Query: // inclusive: hM4 %ACh Max at least 70%? input: COc1ccc(CNc2ncnc3c2oc2nc(C)c(Cl)c(C)c23)cc1F.Cl [Compound 14a]
Result: Criterion not met

Query: // inclusive: hM4 %ACh Max at least 70%? input: Cc1nc2sc3c(NCc4ccc(OC(F)F)cc4)nncc3c2c(C)c1Cl [Compound 22e]
Result: Criterion not met

###

Biological target: human M4 (hM4) (Homo sapiens, UniProt P08173)
Experiment: Calcium mobilization assay, hM4/Gqi5-CHO cells, with EC20 acetylcholine (PAM)
Conditions: read-out: hM4 EC50; as quoted in text in μM; hM4/Gqi5-CHO cells, EC20 acetylcholine
measured endpoint: EC50

Query: Need EC50 of Cc1nc2sc3c(N4CC5(COC5)C4)ncnc3c2c(C)c1Cl.Cl [Compound 13d] , thanks.
Result: > 10 µM

###

Target: human M2 (hM2) (Homo sapiens)
Sequence (P08172 whole entry): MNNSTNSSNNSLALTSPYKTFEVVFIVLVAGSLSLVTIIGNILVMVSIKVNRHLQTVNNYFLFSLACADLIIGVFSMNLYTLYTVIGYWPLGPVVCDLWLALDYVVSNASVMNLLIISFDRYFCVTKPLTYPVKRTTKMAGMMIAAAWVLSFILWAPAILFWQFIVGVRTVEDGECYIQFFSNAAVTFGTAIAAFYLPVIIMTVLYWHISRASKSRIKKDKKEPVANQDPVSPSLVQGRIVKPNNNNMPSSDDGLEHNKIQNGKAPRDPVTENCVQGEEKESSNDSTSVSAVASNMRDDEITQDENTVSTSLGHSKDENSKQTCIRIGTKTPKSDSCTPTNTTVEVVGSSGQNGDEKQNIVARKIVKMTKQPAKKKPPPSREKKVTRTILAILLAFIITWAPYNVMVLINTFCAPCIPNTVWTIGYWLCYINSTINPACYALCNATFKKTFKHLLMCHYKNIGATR
Test: Calcium mobilization assay, hM2/Gqi5-CHO cells, with EC20 acetylcholine
measured endpoint: pEC50
Give only the number. pEC50 is defined as minus log10 of concentration in molar units.

Query: Need pEC50 of Cc1nc2sc3c(NC4CC4)ncnc3c2c(C)c1Cl.Cl [Compound 13l] , thanks.
Result: 5.30

Query: Need pEC50 of Cc1nc2oc3c(NC4CC4(C)C)ncnc3c2c(C)c1Cl.Cl (centres unmarked) [Compound 14p] , thanks.
Result: 5.64

Query: Need pEC50 of Cc1c(Cl)cnc2sc3c(NC4CC4)ncnc3c12 [Compound 15g] , thanks.
Result: 6.32

Query: Need pEC50 of Cc1nc2sc3c(NC4CC(F)(F)C4)nncc3c2c(C)c1Cl.Cl [Compound 22k] , thanks.
Result: 6.59

###

Assay: Binding in plasma from rat, equilibrium dialysis
Assay type: in vitro ADME
Details: read-out: rat fu,plasma
measured endpoint: fraction unbound at 6 h, 5 µM

Query: Need fraction unbound at 6 h, 5 µM of Cc1c(Cl)cnc2sc3c(NC4CC(c5ccncc5)C4)ncnc3c12 (centres unmarked) [Compound 15e] , thanks.
Result: ≤ 0.01

Query: Need fraction unbound at 6 h, 5 µM of Cc1nc2sc3c(NC4CC4)ncnc3c2c(C)c1Cl.Cl [Compound 13l] , thanks.
Result: ≤ 0.01

###

Molecular target: CYP 2C9 (Homo sapiens, UniProt P11712)
Sequence (P11712 whole entry): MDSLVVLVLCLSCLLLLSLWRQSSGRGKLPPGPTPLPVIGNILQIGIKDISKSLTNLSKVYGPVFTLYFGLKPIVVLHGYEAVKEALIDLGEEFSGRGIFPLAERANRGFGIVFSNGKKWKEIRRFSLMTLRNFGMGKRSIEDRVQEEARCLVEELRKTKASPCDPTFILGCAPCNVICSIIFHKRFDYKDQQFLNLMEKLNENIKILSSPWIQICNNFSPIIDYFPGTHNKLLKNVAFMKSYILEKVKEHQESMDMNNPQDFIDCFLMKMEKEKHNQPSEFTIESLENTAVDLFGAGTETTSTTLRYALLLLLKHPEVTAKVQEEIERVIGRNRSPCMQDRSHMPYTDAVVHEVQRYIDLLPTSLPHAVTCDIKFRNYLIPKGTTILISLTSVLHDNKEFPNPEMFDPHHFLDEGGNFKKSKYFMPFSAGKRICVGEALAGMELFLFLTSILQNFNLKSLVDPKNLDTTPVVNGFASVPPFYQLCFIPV
Experiment: CYP450 inhibition in pooled human liver microsomes, CYP-specific probe substrates
Type: in vitro ADME
Conditions: pooled HLM, NADPH, CYP-specific probe substrate
measured endpoint: IC50

Query: Need IC50 of Cc1nc2sc3c(NC4CCC4)nncc3c2c(C)c1Cl.Cl [Compound 22j] , thanks.
Result: > 30 µM

Query: Need IC50 of Cc1c(Cl)cnc2sc3c(NC4CC(c5ccncc5)C4)ncnc3c12 (stereo not shown) [Compound 15e] , thanks.
Result: 9.1 µM

Query: Need IC50 of Cc1nc2sc3c(NC4CC4)ncnc3c2c(C)c1Cl.Cl [Compound 13l] , thanks.
Result: > 15.8 µM

Query: Need IC50 of Cc1nc2sc3c(NC4CC(F)(F)C4)nncc3c2c(C)c1Cl.Cl [Compound 22k] , thanks.
Result: > 30 µM

Query: Need IC50 of Cc1c(Cl)cnc2sc3c(N4CC(C#N)C4)ncnc3c12 [Compound 15f] , thanks.
Result: > 30 µM

Query: Need IC50 of Cc1nc2sc3c(NC4CC4)nncc3c2c(C)c1Cl.Cl [Compound 22i] , thanks.
Result: 19.2 µM

Query: Need IC50 of Cc1nc2oc3c(NC4CC4(C)C)ncnc3c2c(C)c1Cl.Cl (stereo not shown) [Compound 14p] , thanks.
Result: > 30 µM

Query: Need IC50 of Cc1c(Cl)cnc2sc3c(NC4CC4)ncnc3c12 [Compound 15g] , thanks.
Result: > 30 µM

Query: Need IC50 of Cc1c(Cl)cnc2sc3c(N4CC5(COC5)C4)ncnc3c12 [Compound 15h] , thanks.
Result: > 30 µM

Query: Need IC50 of Cc1nc2oc3c(NC4CC4)ncnc3c2c(C)c1Cl.Cl [Compound 14o] , thanks.
Result: ≥ 30 µM

###

Target: CYP 3A4 (Homo sapiens, UniProt P08684)
Sequence (P08684 whole entry): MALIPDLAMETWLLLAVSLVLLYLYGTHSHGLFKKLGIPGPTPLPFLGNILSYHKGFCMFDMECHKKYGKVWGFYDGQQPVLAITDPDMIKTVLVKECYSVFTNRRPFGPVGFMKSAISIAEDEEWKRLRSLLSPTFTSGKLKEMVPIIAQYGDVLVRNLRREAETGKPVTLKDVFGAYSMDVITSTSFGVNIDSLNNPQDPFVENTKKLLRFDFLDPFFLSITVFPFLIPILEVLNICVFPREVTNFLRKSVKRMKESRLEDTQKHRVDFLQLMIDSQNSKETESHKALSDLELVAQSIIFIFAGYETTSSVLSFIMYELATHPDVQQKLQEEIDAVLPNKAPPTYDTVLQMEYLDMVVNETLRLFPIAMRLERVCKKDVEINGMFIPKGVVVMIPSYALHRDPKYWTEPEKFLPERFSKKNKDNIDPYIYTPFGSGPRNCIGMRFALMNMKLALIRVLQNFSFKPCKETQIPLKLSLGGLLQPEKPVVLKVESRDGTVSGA
Assay: CYP450 inhibition in pooled human liver microsomes, CYP-specific probe substrates
Assay type: in vitro ADME
Conditions: pooled HLM, NADPH, CYP-specific probe substrate
measured endpoint: IC50

Query: Need IC50 of Cc1nc2sc3c(NC4CCC4)nncc3c2c(C)c1Cl.Cl [Compound 22j] , thanks.
Result: > 30 µM

Query: Need IC50 of Cc1c(Cl)cnc2sc3c(N4CC(C#N)C4)ncnc3c12 [Compound 15f] , thanks.
Result: > 30 µM

Query: Need IC50 of Cc1c(Cl)cnc2sc3c(N4CC5(COC5)C4)ncnc3c12 [Compound 15h] , thanks.
Result: > 30 µM

###

Biological target: CYP 2D6 (Homo sapiens, UniProt P10635)
Sequence (P10635 whole entry): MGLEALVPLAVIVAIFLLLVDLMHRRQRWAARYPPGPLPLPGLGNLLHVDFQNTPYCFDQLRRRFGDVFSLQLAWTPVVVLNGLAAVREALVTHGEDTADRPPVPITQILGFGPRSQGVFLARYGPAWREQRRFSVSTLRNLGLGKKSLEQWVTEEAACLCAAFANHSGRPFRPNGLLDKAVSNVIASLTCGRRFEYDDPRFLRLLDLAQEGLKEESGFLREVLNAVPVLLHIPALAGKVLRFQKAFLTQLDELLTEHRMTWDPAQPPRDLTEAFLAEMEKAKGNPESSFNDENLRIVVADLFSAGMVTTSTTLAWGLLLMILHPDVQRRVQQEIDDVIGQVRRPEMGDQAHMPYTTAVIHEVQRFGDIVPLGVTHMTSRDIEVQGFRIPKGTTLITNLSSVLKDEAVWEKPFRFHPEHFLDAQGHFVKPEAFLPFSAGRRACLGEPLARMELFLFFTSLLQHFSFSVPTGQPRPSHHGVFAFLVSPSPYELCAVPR
Test: CYP450 inhibition in pooled human liver microsomes, CYP-specific probe substrates
Assay type: in vitro ADME
Settings: pooled HLM, NADPH, CYP-specific probe substrate
measured endpoint: IC50

Query: Need IC50 of Cc1c(Cl)cnc2sc3c(N4CC5(COC5)C4)ncnc3c12 [Compound 15h] , thanks.
Result: > 30 µM

Query: Need IC50 of Cc1c(Cl)cnc2sc3c(N4CC(C#N)C4)ncnc3c12 [Compound 15f] , thanks.
Result: > 30 µM

Query: Need IC50 of Cc1nc2oc3c(NC4CC4(C)C)ncnc3c2c(C)c1Cl.Cl (stereo not drawn) [Compound 14p] , thanks.
Result: > 30 µM

Query: Need IC50 of Cc1nc2sc3c(NC4CC4)ncnc3c2c(C)c1Cl.Cl [Compound 13l] , thanks.
Result: > 30 µM

Query: Need IC50 of Cc1c(Cl)cnc2sc3c(NC4CC4)ncnc3c12 [Compound 15g] , thanks.
Result: > 30 µM

Query: Need IC50 of Cc1nc2oc3c(NC4CC4)ncnc3c2c(C)c1Cl.Cl [Compound 14o] , thanks.
Result: ≥ 30 µM
